# Experimental system: T1, full-length human Regnase-1 with a FLAG tag on the N-terminal side and a biotin ligase BirA recognition … (human, UniProt Q5D1E8 1-599, biotinylated at the BirA recognition sequence when required)
# T1 sequence: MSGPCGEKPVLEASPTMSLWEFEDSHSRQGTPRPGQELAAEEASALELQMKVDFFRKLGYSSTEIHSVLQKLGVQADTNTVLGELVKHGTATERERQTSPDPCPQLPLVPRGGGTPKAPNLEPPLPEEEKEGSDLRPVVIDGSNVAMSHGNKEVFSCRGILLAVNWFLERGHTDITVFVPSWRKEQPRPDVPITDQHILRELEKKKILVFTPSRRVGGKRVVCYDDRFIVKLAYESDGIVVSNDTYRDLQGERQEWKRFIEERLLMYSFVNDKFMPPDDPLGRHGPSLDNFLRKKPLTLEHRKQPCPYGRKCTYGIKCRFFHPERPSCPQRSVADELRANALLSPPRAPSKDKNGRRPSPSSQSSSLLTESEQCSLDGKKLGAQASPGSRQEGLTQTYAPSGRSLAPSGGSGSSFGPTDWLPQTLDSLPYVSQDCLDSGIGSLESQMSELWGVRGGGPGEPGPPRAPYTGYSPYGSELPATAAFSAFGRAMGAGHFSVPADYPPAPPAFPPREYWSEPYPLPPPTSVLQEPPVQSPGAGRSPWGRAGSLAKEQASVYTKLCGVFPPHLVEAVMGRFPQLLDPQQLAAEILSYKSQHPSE
# Protocol description: cell-based or functional assay
Positions of bridges follow the written chain, without caps; N, C: chain ends. Non-standard residues stand in square brackets, D forms with d. *: point of attachment. Pyrrolidide = C1CCN(*)C1; dNMeA = CN[C@H](C)C(=O)O
Some binders, each annotated with its measured 50% inhibition concentration, Regnase-1 phosphorylation by IKKβ (AlphaScreen).
Respond with the bare value in µM.

Example entries begin here.
XKFAQFRWIYPD (HELM PEPTIDE1{[meA].K.F.A.Q.F.R.W.I.Y.P.D.[C1CCN([*:1])C1]}$PEPTIDE1,PEPTIDE1,1:R1-12:R3$$$V2.0; SMILES CC[C@H](C)[C@@H]1NC(=O)[C@H](Cc2c[nH]c3ccccc23)NC(=O)[C@H](CCCNC(=N)N)NC(=O)[C@H](Cc2ccccc2)NC(=O)[C@H](CCC(N)=O)NC(=O)[C@H](C)NC(=O)[C@H](Cc2ccccc2)NC(=O)[C@H](CCCCN)NC(=O)[C@H](C)N(C)C(=O)C[C@@H](C(=O)N2CCCC2)NC(=O)[C@@H]2CCCN2C(=O)[C@H](Cc2ccc(O)cc2)NC1=O) [PP11] | 22.3
XPNSSWFKIWD (HELM PEPTIDE1{[C[C@H](C(=O)[*:2])N(C)[*:1]].P.N.S.S.W.F.K.I.W.D.[C1CCN([*:1])C1]}$PEPTIDE1,PEPTIDE1,1:R1-11:R3$$$V2.0; SMILES CC[C@H](C)[C@@H]1NC(=O)[C@H](CCCCN)NC(=O)[C@H](Cc2ccccc2)NC(=O)[C@H](Cc2c[nH]c3ccccc23)NC(=O)[C@H](CO)NC(=O)[C@H](CO)NC(=O)[C@H](CC(N)=O)NC(=O)[C@@H]2CCCN2C(=O)[C@@H](C)N(C)C(=O)C[C@@H](C(=O)N2CCCC2)NC(=O)[C@H](Cc2c[nH]c3ccccc23)NC1=O) [PP6] | 17
XNSWYRIWGLD (HELM PEPTIDE1{[meA].N.S.W.Y.R.I.W.G.L.D.[C1CCN([*:1])C1]}$PEPTIDE1,PEPTIDE1,1:R1-11:R3$$$V2.0; SMILES CC[C@H](C)[C@@H]1NC(=O)[C@H](CCCNC(=N)N)NC(=O)[C@H](Cc2ccc(O)cc2)NC(=O)[C@H](Cc2c[nH]c3ccccc23)NC(=O)[C@H](CO)NC(=O)[C@H](CC(N)=O)NC(=O)[C@H](C)N(C)C(=O)C[C@@H](C(=O)N2CCCC2)NC(=O)[C@H](CC(C)C)NC(=O)CNC(=O)[C@H](Cc2c[nH]c3ccccc23)NC1=O) [PP22] | 15
XDIWFDYWDWD (HELM PEPTIDE1{[meA].D.I.W.F.D.Y.W.D.W.D.[C1CCN([*:1])C1]}$PEPTIDE1,PEPTIDE1,1:R1-11:R3$$$V2.0; SMILES CC[C@H](C)[C@@H]1NC(=O)[C@H](CC(=O)O)NC(=O)[C@H](C)N(C)C(=O)C[C@@H](C(=O)N2CCCC2)NC(=O)[C@H](Cc2c[nH]c3ccccc23)NC(=O)[C@H](CC(=O)O)NC(=O)[C@H](Cc2c[nH]c3ccccc23)NC(=O)[C@H](Cc2ccc(O)cc2)NC(=O)[C@H](CC(=O)O)NC(=O)[C@H](Cc2ccccc2)NC(=O)[C@H](Cc2c[nH]c3ccccc23)NC1=O) [PP17] | 0.5

Requested read-out: 50% inhibition concentration, Regnase-1 phosphorylation by IKKβ (AlphaScreen). Entry: [dNMeA]KHASAWYRIWD-Pyrrolidide (lactam N-12) [PP3] 4.6
